src = patent US4000985A

METHOD SUMMARY: Rate and extent of dissolution in No. 1 and No. 2 Heating Oils at 25° C. (colorimetric)
Assay type: physicochemical
SETTINGS: No. 2 Fuel Oil, 10 Minutes, 25° C., aminoazobenzene dyes (Table 5)
QUANTITY: Percent Dissolved (%)

{"MOLECULE": "CCCCCCCNc1ccc2ccccc2c1N=Nc1ccc(N=Nc2ccccc2)cc1", "QUANTITY": "Percent Dissolved", "READOUT VALUE": 8.10}
{"MOLECULE": "CCCCC(CC)CNc1ccc2ccccc2c1N=Nc1ccc(N=Nc2ccccc2)cc1 (centres unmarked)", "QUANTITY": "Percent Dissolved", "READOUT VALUE": 4.90}
{"MOLECULE": "CCCCCCNc1ccc2ccccc2c1N=Nc1ccc(N=Nc2ccccc2)cc1", "QUANTITY": "Percent Dissolved", "READOUT VALUE": 5.12}

[A] CCCCCCCCCCCCNc1ccc2ccccc2c1N=Nc1ccc(N=Nc2ccccc2)cc1
[B] OCCOCCNc1ccc2ccccc2c1N=Nc1ccc(N=Nc2ccccc2)cc1
QUERY: # returns the entry with the larger Percent Dissolved; inputs A and B Please respond with the label that marks your chosen entry.
RESULT: A
(A: 8.17%, B: 0.17%)

---

METHOD SUMMARY: Rate and extent of dissolution in No. 1 and No. 2 Heating Oils at 25° C. (colorimetric)
Type: physicochemical
SETTINGS: No. 1 Fuel Oil, 20 Minutes, 25° C., aminoazotoluene dyes (Table 6)
QUANTITY: Percent Dissolved (%)

[A] Cc1ccccc1N=Nc1ccc(N=Nc2c(NC3CCCCC3)ccc3ccccc23)c(C)c1 [Example 34]
[B] Cc1ccccc1N=Nc1ccc(N=Nc2c(NCCOCCO)ccc3ccccc23)c(C)c1 [Example 32]
[C] CCCCC(CC)COCCCNc1ccc2ccccc2c1N=Nc1ccc(N=Nc2ccccc2C)cc1C (stereo not shown) [Example 7]
[D] CCCCCCCNc1ccc2ccccc2c1N=Nc1ccc(N=Nc2ccccc2C)cc1C [Example 36]
QUERY: Which order do these fall in by Percent Dissolved? Give them lowest to highest. Give your ranking as a list of the labels in the requested order.
RESULT: B, A, D, C
(B: 0.13%, A: 0.94%, D: 1.65%, C: 8.35%)

---

METHOD SUMMARY: Rate and extent of dissolution in No. 1 and No. 2 Heating Oils at 25° C. (colorimetric)
Type: physicochemical
SETTINGS: No. 1 Fuel Oil, 20 Minutes, 25° C., aminoazobenzene dyes (Table 4)
QUANTITY: Percent Dissolved (%)

[P] CCCCCCNc1ccc2ccccc2c1N=Nc1ccc(N=Nc2ccccc2)cc1
[Q] c1ccc(N=Nc2ccc(N=Nc3c(NC4CCCCC4)ccc4ccccc34)cc2)cc1
[R] CCCCC(CC)COCCCNc1ccc2ccccc2c1N=Nc1ccc(N=Nc2ccccc2)cc1 (stereo not shown)
QUERY: Which order do these fall in by Percent Dissolved? Give them lowest to highest. Give your ranking as a list of the labels in the requested order.
RESULT: Q, P, R

---

METHOD SUMMARY: Rate and extent of dissolution in No. 1 and No. 2 Heating Oils at 25° C. (colorimetric)
Type: physicochemical
SETTINGS: No. 2 Fuel Oil, 20 Minutes, 25° C., aminoazobenzene dyes (Table 5)
QUANTITY: Percent Dissolved (%)

{"SAMPLE SMILES": "CCOCCOCCCNc1ccc2ccccc2c1N=Nc1ccc(N=Nc2ccccc2)cc1", "Percent Dissolved [%]": 0.61}

[a] CCCCCCNc1ccc2ccccc2c1N=Nc1ccc(N=Nc2ccccc2)cc1
[b] COCCCNc1ccc2ccccc2c1N=Nc1ccc(N=Nc2ccccc2)cc1
[c] CCCCCCCCCCNc1ccc2ccccc2c1N=Nc1ccc(N=Nc2ccccc2)cc1
QUERY: Arrange the 3 compounds from largest to smallest Percent Dissolved. Give your ranking as a list of the labels in the requested order.
RESULT: c, a, b
(c: 8.14%, a: 5.27%, b: 0.73%)

---

METHOD SUMMARY: Storage solubility in xylene at 20°-25° C. and -10° C.
Format: physicochemical
SETTINGS: -10° C. (Table 12)
QUANTITY: Solubility (% by Wt.)

Worked examples follow.
{"COMPOUND": "CCCCC(CC)COCCCNc1ccc2ccccc2c1N=Nc1ccc(N=Nc2ccccc2)cc1C (centres unmarked)", "Solubility (% by Wt.)": 38.1}
{"COMPOUND": "CCCCC(CC)CNc1ccc2ccccc2c1N=Nc1cc(C)c(N=Nc2ccccc2C)cc1C (centres unmarked)", "Solubility (% by Wt.)": 25.0}
{"COMPOUND": "CCCCC(CC)COCCCNc1ccc2ccccc2c1N=Nc1cc(C)c(N=Nc2ccccc2C)cc1C (centres unmarked)", "Solubility (% by Wt.)": 20.8}

[P] CCCCC(CC)COCCCNc1ccc2ccccc2c1N=Nc1ccc(N=Nc2ccccc2C)cc1C (centres unmarked)
[Q] CCCCC(CC)CNc1ccc2ccccc2c1N=Nc1ccc(N=Nc2ccccc2)cc1 (centres unmarked)
QUERY: Lower Solubility (% by Wt.): P or Q ? Please respond with the label that marks your chosen entry.
RESULT: Q

---

METHOD SUMMARY: Rate and extent of dissolution in No. 1 and No. 2 Heating Oils at 25° C. (colorimetric)
Assay type: physicochemical
SETTINGS: No. 1 Fuel Oil, 10 Minutes, 25° C., aminoazobenzene dyes (Table 4)
QUANTITY: Percent Dissolved (%)

[1] CCNc1ccc2ccccc2c1N=Nc1ccc(N=Nc2ccccc2)cc1
[2] CCCCCCCCCCNc1ccc2ccccc2c1N=Nc1ccc(N=Nc2ccccc2)cc1
[3] CCCCCCCNc1ccc2ccccc2c1N=Nc1ccc(N=Nc2ccccc2)cc1
QUERY: Which order do these fall in by Percent Dissolved? Give them lowest to highest. Give your ranking as a list of the labels in the requested order.
RESULT: 1, 2, 3

---

METHOD SUMMARY: Rate and extent of dissolution in No. 1 and No. 2 Heating Oils at 25° C. (colorimetric)
Type: physicochemical
SETTINGS: No. 2 Fuel Oil, 20 Minutes, 25° C., aminoazotoluene dyes (Table 7)
Method: The solubility properties of each of the dyes of Examples 16-41 were evaluated in the fuels No. 1 and No. 2 Heating Oils, respectively. The procedure was as follows: Where the dyes are solid dyes, excess of pulverized solid dye, far beyond that which would dissolve, i.e., 30 to 35% dye, was added to the respective oils at 25° C. and agitated at constant speed. Samples were removed at 1, 10 and 20 minute intervals, filtered, and the amount of dissolved dye determined colorimetrically. […]
QUANTITY: Percent Dissolved (%)

{"COMPOUND": "CCCCCCNc1ccc2ccccc2c1N=Nc1ccc(N=Nc2ccccc2C)cc1C", "READOUT VALUE": 1.11}

[1] CCCCCCCCCCNc1ccc2ccccc2c1N=Nc1ccc(N=Nc2ccccc2C)cc1C
[2] CCCCNc1ccc2ccccc2c1N=Nc1ccc(N=Nc2ccccc2C)cc1C
QUERY: # returns the entry with the larger Percent Dissolved; inputs 1 and 2 Please respond with the label that marks your chosen entry.
RESULT: 1

[1] Cc1ccccc1N=Nc1ccc(N=Nc2c(NCCOCCO)ccc3ccccc23)c(C)c1
[2] CCCCC(CC)COCCCNc1ccc2ccccc2c1N=Nc1ccc(N=Nc2ccccc2C)cc1C (centres unmarked)
QUERY: Lower Percent Dissolved: 1 or 2 ? Please respond with the label that marks your chosen entry.
RESULT: 1
(1: 0.15%, 2: 7.71%)

---

METHOD SUMMARY: Rate and extent of dissolution in No. 1 and No. 2 Heating Oils at 25° C. (colorimetric)
Assay type: physicochemical
SETTINGS: No. 1 Fuel Oil, 1 Minute, 25° C., aminoazotoluene dyes (Table 6)
QUANTITY: Percent Dissolved (%)

[a] Cc1ccccc1N=Nc1ccc(N=Nc2c(NC3CCCCC3)ccc3ccccc23)c(C)c1
[b] CCCCCCCNc1ccc2ccccc2c1N=Nc1ccc(N=Nc2ccccc2C)cc1C
QUERY: Lower Percent Dissolved: a or b ? Please respond with the label that marks your chosen entry.
RESULT: a

---

METHOD SUMMARY: Storage solubility in xylene at 20°-25° C. and -10° C.
Type: physicochemical
SETTINGS: -10° C. (Table 12)

{"COMPOUND": "CCCCC(CC)CNc1ccc2ccccc2c1N=Nc1ccc(N=Nc2ccccc2C)cc1C (stereo not drawn)", "Solubility (% by Wt.)": "Complete"}
{"COMPOUND": "CCCCC(CC)COCCCNc1ccc2ccccc2c1N=Nc1ccc(N=Nc2ccccc2)cc1 (stereo not drawn)", "Solubility (% by Wt.)": "Complete"}
{"COMPOUND": "CCCCC(CC)CNc1ccc2ccccc2c1N=Nc1ccc(N=Nc2ccccc2)cc1C (stereo not drawn)", "Solubility (% by Wt.)": "Complete"}

---

METHOD SUMMARY: Rate and extent of dissolution in No. 1 and No. 2 Heating Oils at 25° C. (colorimetric)
Format: physicochemical
SETTINGS: No. 1 Fuel Oil, 1 Minute, 25° C., aminoazotoluene dyes (Table 6)
QUANTITY: Percent Dissolved (%)

Worked examples follow.
{"COMPOUND": "CCCCCCCCNc1ccc2ccccc2c1N=Nc1ccc(N=Nc2ccccc2C)cc1C", "QUANTITY": "Percent Dissolved", "READOUT VALUE": 1.38}
{"COMPOUND": "CCNc1ccc2ccccc2c1N=Nc1ccc(N=Nc2ccccc2C)cc1C", "QUANTITY": "Percent Dissolved", "READOUT VALUE": 0.24}
{"COMPOUND": "CCCCCCCCCCCCNc1ccc2ccccc2c1N=Nc1ccc(N=Nc2ccccc2C)cc1C", "QUANTITY": "Percent Dissolved", "READOUT VALUE": 3.29}
{"COMPOUND": "CCCCC(CC)COCCCNc1ccc2ccccc2c1N=Nc1ccc(N=Nc2ccccc2C)cc1C (stereo not drawn)", "QUANTITY": "Percent Dissolved", "READOUT VALUE": 6.44}

[I] CCOCCOCCCNc1ccc2ccccc2c1N=Nc1ccc(N=Nc2ccccc2C)cc1C
[II] CCCCCCCCCCNc1ccc2ccccc2c1N=Nc1ccc(N=Nc2ccccc2C)cc1C
QUERY: # returns the entry with the larger Percent Dissolved; inputs I and II Please respond with the label that marks your chosen entry.
RESULT: I
